molecular target: human ACC2 (Homo sapiens); construct: made in house; host or cells: insect cells (baculoviral expression system); experiment: ACC2 assay, spectrophotometric 384 well assay (NADH-linked, coupled lactate dehydrogenase/pyruvate kinase); format: biochemical; details: ACC2 assay, hACC2 construct lacking 128 N-terminal amino acids, 25° C., 340 nm; read-out: IC50
pIC50: −log10 of the molar value.
Quick rule for you: pIC50 at 6 or higher means 1 (yes), lower means 0 (no).

compound	group_label
CC(=O)N[C@@H](C)c1ccc(C2CCN(c3ncc(C(=O)NCCS(C)(=O)=O)cn3)CC2)cc1	0 (no)
CC(=O)N[C@@H](C)c1ccc(C2CCN(c3cc(OCCC4CC4)ncn3)CC2)cc1	1 (yes)
CC(=O)N[C@@H](C)c1ccc(C2CCN(c3nccc(C(F)(F)F)c3F)CC2)cc1	1 (yes)
CC(=O)N[C@@H](C)c1ccc(C2CCN(c3nc4ccccc4n3C)CC2)cc1	0 (no)
CCOc1ccc(N2CCC(c3ccc([C@H](C)NC(=O)Nc4ccnnc4)cc3)CC2)cc1	0 (no)
CCCOc1ccc(N2CCC(c3ccc([C@H](C)NC(=O)N(C)C)cc3)CC2)cc1	1 (yes)
CCCOc1ccc(N2CCC(c3ccc([C@H](C)NC(C)=O)cc3)CC2)cc1	1 (yes)
C[C@H](NC(=O)N(C)C)c1ccc(C2CCN(c3ccc(OC4CCCC4)cc3)CC2)cc1	1 (yes)

Test whether the compound CC(=O)N[C@@H](C)c1ccc(C2CCN(c3ncc(C(=O)Nc4cccc(C)c4)cn3)CC2)cc1 records pIC50 of 6 or higher.
1 (yes)

---

target: human ACC2 (Homo sapiens, UniProt O00763); construct: made in house; host or cells: insect cells (baculoviral expression system); test: ACC2 assay, spectrophotometric 384 well assay (NADH-linked, coupled lactate dehydrogenase/pyruvate kinase); type: biochemical; details: ACC2 assay, hACC2 construct lacking 128 N-terminal amino acids, 25° C., 340 nm; read-out: IC50
Sequence (O00763 129-2458 limits assumed): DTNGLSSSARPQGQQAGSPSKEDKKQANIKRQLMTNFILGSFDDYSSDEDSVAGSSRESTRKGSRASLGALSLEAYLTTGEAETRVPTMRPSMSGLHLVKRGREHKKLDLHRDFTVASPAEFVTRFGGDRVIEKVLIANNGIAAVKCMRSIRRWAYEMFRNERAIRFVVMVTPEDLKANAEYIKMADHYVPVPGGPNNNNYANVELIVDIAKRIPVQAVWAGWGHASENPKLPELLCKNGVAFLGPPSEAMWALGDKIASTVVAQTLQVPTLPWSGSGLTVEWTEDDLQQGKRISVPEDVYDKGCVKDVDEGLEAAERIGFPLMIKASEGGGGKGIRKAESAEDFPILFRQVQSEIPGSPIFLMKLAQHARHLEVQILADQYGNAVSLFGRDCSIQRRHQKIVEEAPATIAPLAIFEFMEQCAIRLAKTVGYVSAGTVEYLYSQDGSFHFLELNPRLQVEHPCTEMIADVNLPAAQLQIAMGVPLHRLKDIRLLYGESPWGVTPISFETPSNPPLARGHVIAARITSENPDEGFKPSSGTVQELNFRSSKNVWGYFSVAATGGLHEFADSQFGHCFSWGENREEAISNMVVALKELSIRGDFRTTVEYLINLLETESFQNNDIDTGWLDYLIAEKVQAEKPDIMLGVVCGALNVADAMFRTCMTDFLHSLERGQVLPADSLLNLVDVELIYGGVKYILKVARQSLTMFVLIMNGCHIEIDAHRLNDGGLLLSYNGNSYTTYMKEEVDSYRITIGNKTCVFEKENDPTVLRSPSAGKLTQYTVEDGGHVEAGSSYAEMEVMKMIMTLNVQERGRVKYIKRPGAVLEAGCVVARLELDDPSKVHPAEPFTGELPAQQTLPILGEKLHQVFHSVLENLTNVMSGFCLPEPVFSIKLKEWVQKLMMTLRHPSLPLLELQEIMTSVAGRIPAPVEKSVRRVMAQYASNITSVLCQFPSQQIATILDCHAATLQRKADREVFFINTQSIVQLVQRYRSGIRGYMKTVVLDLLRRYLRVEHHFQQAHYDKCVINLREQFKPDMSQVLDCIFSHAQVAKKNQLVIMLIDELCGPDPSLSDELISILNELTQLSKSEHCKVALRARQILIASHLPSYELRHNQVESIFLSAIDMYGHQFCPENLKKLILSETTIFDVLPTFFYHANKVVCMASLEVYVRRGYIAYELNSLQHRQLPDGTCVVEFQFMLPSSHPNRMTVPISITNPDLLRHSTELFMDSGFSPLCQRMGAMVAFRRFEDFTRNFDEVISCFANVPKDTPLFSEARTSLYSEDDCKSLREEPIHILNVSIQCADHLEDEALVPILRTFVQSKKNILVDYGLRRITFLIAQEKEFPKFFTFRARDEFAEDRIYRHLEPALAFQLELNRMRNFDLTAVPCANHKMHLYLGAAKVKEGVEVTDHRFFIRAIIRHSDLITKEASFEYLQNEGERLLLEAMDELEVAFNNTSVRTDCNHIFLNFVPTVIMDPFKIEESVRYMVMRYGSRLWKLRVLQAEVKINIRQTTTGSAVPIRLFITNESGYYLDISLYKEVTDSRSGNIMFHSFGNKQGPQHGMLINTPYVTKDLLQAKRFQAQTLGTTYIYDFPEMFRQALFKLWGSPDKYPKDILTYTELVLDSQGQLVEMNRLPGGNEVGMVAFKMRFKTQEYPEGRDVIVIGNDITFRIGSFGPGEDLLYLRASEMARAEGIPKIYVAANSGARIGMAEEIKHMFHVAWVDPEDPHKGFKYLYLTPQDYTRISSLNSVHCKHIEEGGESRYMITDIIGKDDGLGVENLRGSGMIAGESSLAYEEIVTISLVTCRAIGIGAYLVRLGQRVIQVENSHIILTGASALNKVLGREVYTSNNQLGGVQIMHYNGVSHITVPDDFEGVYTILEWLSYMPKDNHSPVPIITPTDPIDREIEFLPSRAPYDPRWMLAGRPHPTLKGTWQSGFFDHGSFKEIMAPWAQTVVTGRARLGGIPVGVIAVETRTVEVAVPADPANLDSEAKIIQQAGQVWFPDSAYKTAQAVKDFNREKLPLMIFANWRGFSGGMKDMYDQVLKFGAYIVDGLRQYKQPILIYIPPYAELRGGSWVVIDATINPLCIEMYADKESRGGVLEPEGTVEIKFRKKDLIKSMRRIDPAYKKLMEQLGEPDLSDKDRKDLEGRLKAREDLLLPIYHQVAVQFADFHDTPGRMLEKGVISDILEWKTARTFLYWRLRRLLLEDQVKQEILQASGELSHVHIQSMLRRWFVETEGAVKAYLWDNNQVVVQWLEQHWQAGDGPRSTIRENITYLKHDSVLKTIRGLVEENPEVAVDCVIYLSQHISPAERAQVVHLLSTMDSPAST
measurement_kind: pIC50
Please report pIC50 as the negative decimal logarithm of the molar concentration, giving only the number.

Below, 10 compounds whose answers are already recorded.
chem_smiles	system	pIC50
COCCOc1ccc(N2CCC(c3ccc([C@H](C)NC(C)=O)cc3)CC2)cc1	human ACC2 (Homo sapiens, UniProt O00763)	6.33
CC(=O)N[C@@H](C)c1ccc(C2CCN(c3ncc(C(=O)N(C)CC#N)cn3)CC2)cc1	human ACC2 (Homo sapiens, UniProt O00763)	4.85
CC(=O)N[C@@H](C)c1ccc(C2CCN(c3ccc(OC4CCCC4)c(C#N)c3)CC2)cc1	human ACC2 (Homo sapiens, UniProt O00763)	5.66
CCCCOc1ccc(N2CCC(c3ccc([C@H](C)NC(C)=O)cc3)CC2)cc1OC	human ACC2 (Homo sapiens, UniProt O00763)	5.68
CCOc1ccc(N2CCC(c3ccc([C@H](C)NC(C)=O)cc3)CC2)cc1F	human ACC2 (Homo sapiens, UniProt O00763)	6.54
CC(=O)N[C@@H](C)c1ccc(C2CCN(c3ccc(Oc4ccccc4)nn3)CC2)cc1	human ACC2 (Homo sapiens, UniProt O00763)	5.80
CCOc1ccc(N2CCC(c3ccc([C@H](C)NC(=O)N(C)Cc4ccn(C)n4)cc3)CC2)cc1	human ACC2 (Homo sapiens, UniProt O00763)	5.42
CCOc1ccc(N2CCC(c3ccc([C@H](C)NC(=O)CC(C)=O)cc3)CC2)cc1	human ACC2 (Homo sapiens, UniProt O00763)	5.57
CC(=O)N[C@@H](C)c1ccc(C2CCN(c3ccc(OC(C)C)c(C#N)c3)CC2)cc1	human ACC2 (Homo sapiens, UniProt O00763)	4.91
COC(=O)N[C@@H](C)c1ccc(C2CCN(c3ccc4c(c3)OCCO4)CC2)cc1	human ACC2 (Homo sapiens, UniProt O00763)	6.35

Moving on to the next compound.
Given item COc1ccc(N2CCC(c3ccc([C@H](C)NC(C)=O)cc3)CC2)c(OC)c1 , the value recorded as its pIC50 is 6.49

---

Target: human ACC2 (Homo sapiens, UniProt O00763)
Construct: made in house; host or cells: insect cells (baculoviral expression system)
Test: ACC2 assay, spectrophotometric 384 well assay (NADH-linked, coupled lactate dehydrogenase/pyruvate kinase)
Format: biochemical
Conditions: ACC2 assay, hACC2 construct lacking 128 N-terminal amino acids, 25° C., 340 nm; read-out: IC50
Method: Spectrophotometric 384 Well Assay Malonyl CoA formation by acetyl CoA carboxylases is stoichometrically linked to the consumption of ATP. ACC2 activity is measured in a NADH-linked kinetic method measuring ADP generated during the ACC reaction using a coupled lactate dehydrogenase/pyruvate kinase reaction. For biological testing, a human ACC2 construct which lacks the 128 amino acids at the N-terminus for increased solubility (nt 385-6966 in Genbank entry AJ575592) is cloned. […]
pIC50: −log10 of the molar value.
Quick rule for you: pIC50 at 6 or higher means class 1, lower means class 0.

Recorded results for 10 molecules are shown here.
molecule	group_label
CCC(C)Oc1ccc(N2CCC(c3ccc([C@H](C)NC(=O)C4CC4)cc3)CC2)cc1 (some centres unmarked)	class 1
CCCCOc1ccc(N2CCC(c3ccc([C@H](C)NC(C)=O)cc3)CC2)cc1Cl	class 1
CC(=O)N[C@@H](C)c1ccc(C2CCN(c3ccnc(OC(C)C4CC4)c3)CC2)cc1 (some centres unmarked)	class 1
CC(=O)N[C@@H](C)c1ccc(C2CCN(c3cc(OC(C)C)ncn3)CC2)cc1	class 1
CC(=O)N[C@@H](C)c1ccc(C2CCN(c3cc(NCC4CCC4)ncn3)CC2)cc1	class 0
COc1ccc2cc(-c3cnc(N4CCC(c5ccc([C@H](C)NC(C)=O)cc5)CC4)nc3)ccc2c1	class 0
CC(=O)N[C@@H](C)c1ccc(C2CCN(c3ncc(-c4ccccn4)cn3)CC2)cc1	class 1
CCCCOc1ccc(N2CCC(c3ccc([C@H](C)NC(C)=O)cc3)CC2)cc1	class 1
CCC(NC(C)=O)c1ccc(C2CCN(c3ccc(OC4CC4)cc3)CC2)cc1 (centres unmarked)	class 1
CC(=O)N[C@@H](C)c1ccc(C2CCN(c3ccc(OCC4CCC4)c(C#N)c3)CC2)cc1	class 0

Test whether the molecule CCCOc1ccc(N2CCC(c3ccc([C@H](C)NC(C)=O)cc3)CC2)c(Cl)c1 records pIC50 of 6 or higher.
class 1

Test whether the molecule CC(=O)N[C@@H](C)c1ccc(C2CCN(c3ccc(OCCC4CC4)cc3F)CC2)cc1 records pIC50 of 6 or higher.
class 1

Test whether the molecule CC(=O)N[C@@H](C)c1ccc(C2CCN(c3ccc(C)cn3)CC2)cc1 records pIC50 of 6 or higher.
class 0

Test whether the molecule CCOc1ccc(N2CCC(c3ccc([C@H](C)NC(=O)c4ncn[nH]4)cc3)CC2)cc1 records pIC50 of 6 or higher.
class 0

Test whether the molecule CC(=O)N[C@@H](C)c1ccc(C2CCN(c3ccnc(OCc4cccc(F)c4)c3)CC2)cc1 records pIC50 of 6 or higher.
class 1

---

target: human ACC2 (Homo sapiens, UniProt O00763); construct: made in house; host or cells: insect cells (baculoviral expression system); assay: ACC2 assay, spectrophotometric 384 well assay (NADH-linked, coupled lactate dehydrogenase/pyruvate kinase); format: biochemical; settings: ACC2 assay, hACC2 construct lacking 128 N-terminal amino acids, 25° C., 340 nm; read-out: IC50
Returns: string. Value is Met if measured IC50 is below 600 nM, and Not met if it is greater than or equal to it.

Recorded results for 7 molecules are shown here.
chem_smiles	group_label
COCCNC(=O)c1cnc(N2CCC(c3ccc([C@H](C)NC(C)=O)cc3)CC2)nc1	Not met
CC(=O)N[C@@H](C)c1ccc(C2CCN(c3ccnc(OC4CCOCC4)c3)CC2)cc1	Met
CC(=O)N[C@@H](C)c1ccc(C2CCN(c3ncc(Cl)cn3)CC2)cc1	Not met
CC(=O)N[C@@H](C)c1ccc(C2CCN(c3cc(F)ncc3C)CC2)cc1	Not met
CC(=O)N[C@@H](C)c1ccc(C2CCN(c3ccc4oc(-c5ccccc5)nc4c3)CC2)cc1	Met
CC(=O)N[C@@H](C)c1ccc(C2CCN(c3ncc(C(=O)N4[C@@H]5CC[C@H]4C[C@@H](O)C5)cn3)CC2)cc1	Not met
CC(=O)N[C@@H](C)c1ccc(C2CCN(c3ncc(C4CC4)cn3)CC2)cc1	Met

Shifting focus to the molecule that follows.
Item CC(=O)N[C@@H](C)c1ccc(C2CCN(c3ccc(OCCC(F)(F)F)cc3)CC2)cc1 : IC50 beneath 600 nM, strictly?
Met

---

target: human ACC2 (Homo sapiens, UniProt O00763); construct: made in house; host or cells: insect cells (baculoviral expression system); assay: ACC2 assay, spectrophotometric 384 well assay (NADH-linked, coupled lactate dehydrogenase/pyruvate kinase); assay type: biochemical; conditions: ACC2 assay, hACC2 construct lacking 128 N-terminal amino acids, 25° C., 340 nm; read-out: IC50
Parameter pIC50: see the listing below.
Please report pIC50 as the negative decimal logarithm of the molar concentration, giving only the number.

compound	pIC50
CC(=O)N[C@@H](C)c1ccc(C2CCN(c3ncc(C4=CCOCC4)cn3)CC2)cc1 [Example 10.84]	5.89
CC(=O)N[C@@H](C)c1ccc(C2CCN(c3ccnc(NCCC4CC4)n3)CC2)cc1 [Example 11.106]	5.80
CC(=O)N[C@@H](C)c1ccc(C2CCN(c3ccc(O)cc3)CC2)cc1 [Example 1.48]	4.95

Given item CCC(=O)N[C@@H](C)c1ccc(C2CCN(c3ccnc(Oc4cncnc4)c3)CC2)cc1 [Example 1.169] , the value recorded as its pIC50 is 5.77

Given item CC(C)Oc1ncc(F)c(N2CCC(c3ccc([C@H](C)NC(=O)C4CC4)cc3)CC2)n1 [Example 11.129] , the value recorded as its pIC50 is 5.89
